Items are presented alongside their recorded AUC.
test: AUC in CD1 mouse at 10 mg/kg, po; type: ADME, organism-based; design: dose 10 mg/kg, route oral; conditions: plasma
Return type: number; implicit unit µM·h.

Recorded AUC, per entry:
NC(=O)c1cccc2[nH]c(-c3ccc(-c4cccnc4)cc3)nc12 :: 2.7
NC(=O)c1cccc2[nH]c(-c3ccc(-c4ccccn4)cc3)nc12 :: 6.1
NC(=O)c1cccc2[nH]c(-c3ccc(-c4ccncc4)cc3)nc12 :: 1.4

Look up AUC for this molecule: `NC(=O)c1cccc2[nH]c(-c3ccc(-c4nnco4)cc3)nc12`
4

Look up AUC for this molecule: `NC(=O)c1cccc2[nH]c(-c3ccc(-c4cnco4)cc3)nc12`
0.11
